Where do these numbers come from? They come from patent US20250171432A1.

Consider the following molecules; for each one, report its IC50.
Test system: HAP1 MTAP-deleted cell line
Assay: Viability assay (CellTiter-Glo), HAP1 MTAP-deleted
Format: cell-based
Conditions: Homo sapiens, 168 h, HAP1 MTAP-deleted cells, 7 days

[ask] // query IC50 value for entry "[2H]C([2H])([2H])N1CCC(c2nc3cc([C@H]4CC[C@H](C)CN4C(=O)C(=O)Nc4cnc(OC)c(C(N)=O)c4)ccc3s2)CC1"
[reply] < 100 nM

[ask] Repeat for the following molecule: "CCc1cc(NC(=O)C(=O)N2C[C@@H](C)CC[C@@H]2c2cccc(OC[C@H](C)N(C)C)c2)cnc1N"
[reply] < 100 nM

[ask] Consider next the molecule "COc1ncc(NC(=O)C(=O)N2C[C@@H](C)CC[C@@H]2c2ccc3sc([C@H]4CN(C)CCO4)nc3c2)cc1C(N)=O" in the same way.
[reply] 100 to 1000 nM

[ask] Can you handle CCc1cc(NC(=O)C(=O)N2C[C@@H](C)CC[C@@H]2c2ccc3sc(C4CN(C)CCN4C)nc3c2)cnc1N (mixture of isomers) next?
[reply] < 100 nM

[ask] Proceed to "COc1ncc(NC(=O)C(=O)N2C[C@@H](C)CC[C@@H]2c2ccc3sc([C@]45CCC(C4)N(C)C5)nc3c2)cc1C(N)=O"
[reply] < 100 nM

[ask] Next entry: CCc1cc(NC(=O)C(=O)N2C[C@@H](C)CC[C@@H]2c2ccc3sc([C@@H]4CN(C)C(C)(C)C4)nc3c2)cnc1N (single isomer, unassigned)
[reply] < 100 nM

* * *

What IC50 was measured for each of the following?
Test system: HAP1 MTAP-deleted cell line
Experiment: Viability assay (CellTiter-Glo), HAP1 MTAP-deleted
Assay type: cell-based
Conditions: Homo sapiens, 168 h, HAP1 MTAP-deleted cells, 7 days

[ask] Which IC50 is reported with HAP1 MTAP-deleted cell line for this entry: CCc1cc(NC(=O)C(=O)N2C[C@@H](C)CC[C@@H]2c2ccc3sc([C@@H]4C[C@@H]5CN(C)C[C@@H]5C4)nc3c2)cnc1N (single isomer, unassigned) ?
[reply] < 100 nM

[ask] Next molecule up: "CCc1cc(NC(=O)C(=O)N2C[C@@H](C)CC[C@@H]2c2ccc3ccc(C#N)nc3c2)cnc1N"
[reply] 100 to 1000 nM

[ask] Record: "COc1ncc(NC(=O)C(=O)N2C[C@@H](C)CC[C@@H]2c2ccc3cn([C@@H]4CCN(C)C4)nc3c2)cc1C(N)=O"
[reply] < 100 nM

[ask] Now the same for "Cc1cc2[nH]c(C(=O)N3C[C@@H](C)CC[C@@H]3c3ccc4sc(C5CCN(C)CC5)nc4c3)cc2nc1N"
[reply] < 100 nM

[ask] Lookup "CCc1cc(NC(=O)C(=O)N2C[C@@H](C)CC[C@@H]2c2ccc3cn([C@H]4CCN(C)C4)nc3c2)cnc1N"
[reply] < 100 nM

[ask] Thanks! And COc1ncc(NC(=O)C(=O)N2C[C@@H](C)CC[C@@H]2c2ccc3sc(C4CN(C)C(C)(C)C4)nc3c2)cc1C(N)=O (mixture of isomers) ?
[reply] < 100 nM
